Hello, the source for this data is patent US4429127A, in case you need it.

Assay: Tissue levels after a single oral administration in rats (microbiological assay)
Assay type: in vivo
Settings: rat, lung, 50 mg/kg oral, 1.0 hour; read-out: Lung concentration
Procedure: Tissue levels of the compound (I) after a single oral administration of 50 mg/kg in mice and rats Tissue levels of the compound (I) were determined by micro-biological assay which employed the thin layer cup method with Bacillus subtilis ATCC6633 as the test organism. Serum and tissue levels of the compound (I) were calculated with the standard curve prepared in normal serum of the test animal species and M/15 phosphate buffer (pH 7.5), respectively.
OBSERVATION TYPE: concentration at 1 h

Recorded concentration at 1 h of CCn1cc(C(=O)O)c(=O)c2cc(F)c(N3CCN(Cc4ccc(N)cc4)CC3)c(F)c21 [compound (I)] , please. 8600 ng/mL

* * *

Tested on: Shigella sonnei IID969
Recorded MIC, one value per entry.
Write it as a number; the unit µg/mL goes unstated.

Consider the following illustrative entries.
>  <MOLECULE>
CCn1cc(C(=O)O)c(=O)c2cnc(N3CCNCC3)nc21

>  <OBSERVATION TYPE>
MIC

>  <MEASURED>
1.56

$$$$
>  <MOLECULE>
CCn1cc(C(=O)O)c(=O)c2ccc(C)nc21

>  <OBSERVATION TYPE>
MIC

>  <MEASURED>
1.56

$$$$
>  <MOLECULE>
CCn1cc(C(=O)O)c(=O)c2cc(F)c(N3CCNCC3)c(F)c21 [Metabolite]

>  <OBSERVATION TYPE>
MIC

>  <MEASURED>
0.05

$$$$

Shift focus to the following entry.
Need MIC of CCn1cc(C(=O)O)c(=O)c2cc(F)c(N3CCN(Cc4ccc(N)cc4)CC3)c(F)c21 , thanks. 0.39

* * *

Experiment: Tissue levels after a single oral administration in mice (microbiological assay)
Type: in vivo
Settings: mouse, lung, 50 mg/kg oral, 1.0 hour; read-out: Lung concentration
OBSERVATION TYPE: concentration at 1 h (ng/mL)
Numeric only. Scale: ng/mL

I am curious: what concentration at 1 h value has been reported for CCn1cc(C(=O)O)c(=O)c2cc(F)c(N3CCN(Cc4ccc(N)cc4)CC3)c(F)c21 [compound (I)] ? 9500

* * *

Test: Tissue levels after a single oral administration in rats (microbiological assay)
Assay type: in vivo
Conditions: rat, serum, 50 mg/kg oral, 4.0 hour; read-out: Serum concentration
OBSERVATION TYPE: concentration at 4 h
Numeric answer plus unit only.

For the compound CCn1cc(C(=O)O)c(=O)c2cc(F)c(N3CCN(Cc4ccc(N)cc4)CC3)c(F)c21 [compound (I)] , what concentration at 4 h is on record? 200 ng/mL

* * *

Experiment: Tissue levels after a single oral administration in rats (microbiological assay)
Assay type: in vivo
Conditions: rat, liver, 50 mg/kg oral, 2.0 hour; read-out: Liver concentration
OBSERVATION TYPE: concentration at 2 h (ng/mL)
Give a bare numeral; the unit ng/mL is implied.

Give its concentration at 2 h value. Item: CCn1cc(C(=O)O)c(=O)c2cc(F)c(N3CCN(Cc4ccc(N)cc4)CC3)c(F)c21 6200

* * *

Test: Tissue levels after a single oral administration in rats (microbiological assay)
Type: in vivo
Details: rat, liver, 50 mg/kg oral, 6.0 hour; read-out: Liver concentration
Protocol: Tissue levels of the compound (I) after a single oral administration of 50 mg/kg in mice and rats Tissue levels of the compound (I) were determined by micro-biological assay which employed the thin layer cup method with Bacillus subtilis ATCC6633 as the test organism. Serum and tissue levels of the compound (I) were calculated with the standard curve prepared in normal serum of the test animal species and M/15 phosphate buffer (pH 7.5), respectively.
OBSERVATION TYPE: concentration at 6 h (ng/mL)
Give the value, in units of ng/mL, as a plain number.

Could you tell me which concentration at 6 h is on file for CCn1cc(C(=O)O)c(=O)c2cc(F)c(N3CCN(Cc4ccc(N)cc4)CC3)c(F)c21 ? 800

* * *

Experiment: Acute toxicity in mice
Format: in vivo
Settings: mouse, in vivo; male mice, iv, 7 days observation
OBSERVATION TYPE: LD50 at 168 h

# input compound: CCn1cc(C(=O)O)c(=O)c2cc(F)c(N3CCN(Cc4ccc(N)cc4)CC3)c(F)c21 [compound (I)] ; wanted: its LD50 at 168 h 250 to 300 mg/kg

* * *

Assay: Tissue levels after a single oral administration in rats (microbiological assay)
Format: in vivo
Settings: rat, lung, 50 mg/kg oral, 4.0 hour; read-out: Lung concentration
OBSERVATION TYPE: concentration at 4 h (ng/mL)
Entry rule: numbers only, all in ng/mL.

Value lookup for concentration at 4 h; key = CCn1cc(C(=O)O)c(=O)c2cc(F)c(N3CCN(Cc4ccc(N)cc4)CC3)c(F)c21 600

* * *

Assay: Tissue levels after a single oral administration in mice (microbiological assay)
Type: in vivo
Settings: mouse, liver, 50 mg/kg oral, 4.0 hour; read-out: Liver concentration
Method: Tissue levels of the compound (I) after a single oral administration of 50 mg/kg in mice and rats Tissue levels of the compound (I) were determined by micro-biological assay which employed the thin layer cup method with Bacillus subtilis ATCC6633 as the test organism. Serum and tissue levels of the compound (I) were calculated with the standard curve prepared in normal serum of the test animal species and M/15 phosphate buffer (pH 7.5), respectively.
OBSERVATION TYPE: concentration at 4 h (ng/mL)
API: value field is a number in ng/mL; no unit string.

Name the reported concentration at 4 h value associated with the compound CCn1cc(C(=O)O)c(=O)c2cc(F)c(N3CCN(Cc4ccc(N)cc4)CC3)c(F)c21 9000

* * *

Test: Tissue levels after a single oral administration in mice (microbiological assay)
Type: in vivo
Settings: mouse, kidney, 50 mg/kg oral, 2.0 hour; read-out: Kidney concentration
OBSERVATION TYPE: concentration at 2 h (ng/mL)
Express the result in ng/mL but write the number alone.

Recorded concentration at 2 h for CCn1cc(C(=O)O)c(=O)c2cc(F)c(N3CCN(Cc4ccc(N)cc4)CC3)c(F)c21 , please? 7800

* * *

Test: Tissue levels after a single oral administration in mice (microbiological assay)
Type: in vivo
Details: mouse, liver, 50 mg/kg oral, 0.5 hour; read-out: Liver concentration
OBSERVATION TYPE: concentration at 0.5 h (ng/mL)
The response must be a number in ng/mL with no trailing unit.

Any idea what its concentration at 0.5 h is? The compound is CCn1cc(C(=O)O)c(=O)c2cc(F)c(N3CCN(Cc4ccc(N)cc4)CC3)c(F)c21 22500

* * *

Test: Tissue levels after a single oral administration in rats (microbiological assay)
Format: in vivo
Conditions: rat, kidney, 50 mg/kg oral, 4.0 hour; read-out: Kidney concentration
OBSERVATION TYPE: concentration at 4 h (ng/mL)
The reply should be a number in ng/mL, with the unit left off.

Give its concentration at 4 h value. Item: CCn1cc(C(=O)O)c(=O)c2cc(F)c(N3CCN(Cc4ccc(N)cc4)CC3)c(F)c21 1000
